Reference source for all entries: ChEMBL document CHEMBL1138522

experiment: Cytotoxicity against primary human blood macrophages after 48 hrs by MTT assay; type: cell-based; conditions: macrophage
Residues, ends and D or L forms follow the SMILES beside them. *: point of attachment. Cbz = O=C(OCc1ccccc1)*
measured parameter: Activity (µM)
Answers are plain numbers, in µM.

>  <compound>
CNC(=N)Nc1ccc(C(=O)O)cc1.O=S(=O)(O)O

>  <reading unit>
µM

>  <Activity>
0.7

$$$$
>  <compound>
O=C(O)CCC(=O)CCC(=O)c1ccc2ccccc2c1

>  <reading unit>
µM

>  <Activity>
1.1

$$$$
>  <compound>
Nc1nc(O)c2cc(CSc3ccc(C(=O)NC(CCC(=O)O)C(=O)O)cc3)ccc2n1 (stereo not given)

>  <reading unit>
µM

>  <Activity>
1.1

$$$$
>  <compound>
C/C(=C\C(=O)N1c2ccccc2CC1c1c[nH]c2ccccc12)C(=O)O (stereo not given)

>  <reading unit>
µM

>  <Activity>
1

$$$$
>  <compound>
O=C(/C=C/c1ccc(O)c(O)c1)NCC(=O)NC(Cc1ccccc1)C(=O)O (stereo not given)

>  <reading unit>
µM

>  <Activity>
1.1

$$$$

Provide each entry's Activity from the list below.
1. Cc1nc(Nc2ccccc2)sc1C(=O)CC(=O)C(=O)NC1C2CC3CC(C2)CC1C3 (stereo not given)
2. O=C(O)CCC(=O)NCC1CCCC(CNC(=O)CCC(=O)O)C1 (stereo not given)
3. O=C(Nc1ccn(C2CCC(COC(c3ccccc3)(c3ccccc3)c3ccccc3)O2)c(=O)n1)c1ccccc1 (stereo not given)
4. Cc1ccccc1OC(=O)Nc1ccc(C(=O)O)c(O)c1
5. C[C@H](NC(=O)OCc1ccccc1)C(=O)N[C@@H](Cc1c[nH]c2ccccc12)C(=O)O (Cbz-Ala-Trp-OH)

1.1
0.9
0.8
0.9
0.9

----------
test system: MDCK; assay: Cytotoxicity against MDCK cells after 48 hrs by MTT assay; format: cell-based, Canis lupus familiaris; details: dog
Classify by measured Activity: rule met if it is equal to or exceeds 2 µM, rule not met if it is smaller.

Examples with answers:
>  <compound>
O=C(O)CCC(=O)NCC1CCCC(CNC(=O)CCC(=O)O)C1 (centres undefined)

>  <classification>
rule not met

$$$$
>  <compound>
O=C(/C=C/c1ccc(O)c(O)c1)NCC(=O)NC(Cc1ccccc1)C(=O)O (centres undefined)

>  <classification>
rule met

$$$$
>  <compound>
Cc1ccccc1OC(=O)Nc1ccc(C(=O)O)c(O)c1

>  <classification>
rule not met

$$$$
>  <compound>
Cc1nc(Nc2ccccc2)sc1C(=O)CC(=O)C(=O)NC1C2CC3CC(C2)CC1C3 (centres undefined)

>  <classification>
rule not met

$$$$
>  <compound>
CCOC(=O)C(O)C(=O)OCc1ccc2ccccc2n1 (centres undefined)

>  <classification>
rule not met

$$$$

Check this compound for Activity at or above 2 µM: Nc1nc(O)c2cc(CSc3ccc(C(=O)NC(CCC(=O)O)C(=O)O)cc3)ccc2n1 (centres undefined)
rule not met

Given Cc1nc(N)nc(O)c1CCCNc1ccc(/C=C/C(=O)CCl)cc1 , state whether its Activity is at least 2 µM.
rule met

Dear colleague, could you confirm whether O=C(O)CCCCCNC(=O)OCc1ccccc1 has Activity at or above 2 µM?
rule not met

Item O=C(O)CCC(=O)CCC(=O)c1ccc2ccccc2c1 with Activity of 2 µM or above?
rule not met

----------
Could you please report measured Activity for the items listed next?
tested on: MDCK; test: Cytotoxicity against MDCK cells after 48 hrs by MTT assay; format: cell-based, Canis lupus familiaris; details: dog
One number for each entry, in µM.

Solved entries (count: 4):
>  <compound>
C/C(=C\C(=O)N1c2ccccc2CC1c1c[nH]c2ccccc12)C(=O)O (stereo not given)

>  <measured result>
1.2

$$$$
>  <compound>
Nc1nc(=O)c2cc(NCc3ccc(C(=O)NC(CCC(=O)O)C(=O)O)cc3)ccc2[nH]1 (stereo not given)

>  <measured result>
1.2

$$$$
>  <compound>
O=C(O[C@H](C(=O)O)[C@H](OC(=O)c1ccccc1)C(=O)O)c1ccccc1

>  <measured result>
0.7

$$$$
>  <compound>
Cc1cccc(OC(=O)Nc2ccc(C(=O)O)c(O)c2)c1

>  <measured result>
2.3

$$$$

We now examine a further compound.
Give the measured Activity for O=C(O)c1ccccc1C(=O)Nc1cc2c(cc1Br)-c1ccccc1C2=O
1.1

----------
Provide the recorded log10 of Activity for the entries that follow.
assay: Cytotoxicity against primary human blood macrophages after 48 hrs by MTT assay; format: cell-based; conditions: macrophage
Residues, ends and D or L forms follow the SMILES beside them. *: point of attachment. Cbz = O=C(OCc1ccccc1)*
# log10 transformed; quantity=Activity; unit=µM

Here are 5 compounds together with their reported answers.
>  <compound>
O=C(O[C@H](C(=O)O)[C@H](OC(=O)c1ccccc1)C(=O)O)c1ccccc1

>  <measured result>
0.04

$$$$
>  <compound>
CC[C@H](C)[C@H](NC(=O)[C@H](C)NC(=O)OCc1ccccc1)C(=O)O (Cbz-Ala-Ile-OH)

>  <measured result>
0.00

$$$$
>  <compound>
CCOC(=O)C(O)C(=O)OCc1ccc2ccccc2n1 (stereo not given)

>  <measured result>
0.00

$$$$
>  <compound>
O=C(O)C(Cc1ccc(O)cc1)c1ccc(C(Cc2ccc(O)cc2)C(=O)O)cc1 (stereo not given)

>  <measured result>
-1.00

$$$$
>  <compound>
Nc1nc(=O)c2cc(NCc3ccc(C(=O)NC(CCC(=O)O)C(=O)O)cc3)ccc2[nH]1 (stereo not given)

>  <measured result>
-0.05

$$$$

Take each entry in turn and give its log10 of Activity.
1. O=C(O)c1ccccc1C(=O)Nc1cc2c(cc1Br)-c1ccccc1C2=O
2. Cc1cccc(OC(=O)Nc2ccc(C(=O)O)c(O)c2)c1
3. Cc1nc(N)nc(O)c1CCCNc1ccc(/C=C/C(=O)CCl)cc1
4. CCOC(=O)CNC(=O)CCC(NS(=O)(=O)c1ccc(C)cc1)C(=O)O (stereo not given)
5. O=C(O)CCCCCNC(=O)OCc1ccccc1

1: 1.00; 2: 0.00; 3: 0.04; 4: -0.10; 5: -0.05
